Answer each item with its documented kon.
Molecular target: T1, human Siglec15-Fc fusion protein (human, UniProt Q6ZMC9 20-263)
T1 construct: Bought protein (Acro #SG5-H5253 is named for the selection); also called recombinant Siglec 15-Fc fusion protein (Acro #SG5-H5253); human Siglec15-Fc protein; not shown: Fc part of the bought fusion protein
T1 sequence (looked up): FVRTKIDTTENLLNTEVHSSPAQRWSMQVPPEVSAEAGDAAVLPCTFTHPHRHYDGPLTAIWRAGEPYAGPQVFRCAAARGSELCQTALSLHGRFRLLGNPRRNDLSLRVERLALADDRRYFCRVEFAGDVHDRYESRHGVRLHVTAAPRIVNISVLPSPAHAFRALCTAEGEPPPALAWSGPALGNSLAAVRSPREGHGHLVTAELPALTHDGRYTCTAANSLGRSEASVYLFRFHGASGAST
Experiment: SPR Biacore T200; Siglec15-Fc captured on Protein A chip, scFv as analyte
Give just the numeric value; M⁻¹ s⁻¹ need not be written.

Prompt: Return reported kon; argument: 2020EP083-H01 scFv (scFv, V domains shown, Tested as a single-chain scFv made in E. coli with a C-terminal flag and 6x His tag) VH: QLQLQESGPGLVKPAETLSLTCTVSGGSVSSGDNLWDWIRQPPGKGLEWIGSIRDSGNPAYNPSLRSRVTISADTSTDQFSLKLTSVTAADTAVYYCARHSDGGYGKIYGMDVWGQGTTVTVSS VL: DIQLTQSPSFLSASVGDRVTITCRASQAVSTYLVWYLQKPGQAPRLLIYAASTLQSGVPSRFSGSGSGTDFTLTISRLQPEDAGTYFCQQLNSNALVFGGGTKVDIK
Response: 143000

Prompt: Return reported kon; argument: 2020EP083-G11 scFv (scFv, V domains shown, Tested as a single-chain scFv made in E. coli with a C-terminal flag and 6x His tag) VH: EVQLVESGGGLVEPGGSLRLSCAASGFTFSSYSMSWVRQAPGKGLEWVGRIKSETDGGTTDYAGPAKGKFIISRNDAENTVSLQMNSLKFEDTAVYHCTTDSSSSWFSYSFDNWGQETLVTVSS VL: EIVMTQSPATLSVSPGERATLSCRASQNVNSNLAWYQQKTGQAPRLLIFGASTRATGIPARFSGSGSGTEFTLTIGSLQSEDFAVYYCQQYNNWPPTFGGWTKVEIK
Response: 318000

Prompt: Return reported kon; argument: 2020EP085-G5 scFv (scFv, V domains shown, Tested as a single-chain scFv made in E. coli with a C-terminal flag and 6x His tag) VH: QVQLVQSGAEVKKPGASVKVSCKASGYTFTDYYMHWVRQAPGQGLEWMGWINPNSGGTNYAQKFQGRVTMTRDTSITTAYMELSWLRSDDTAVYYCAREVGTTTTGVDYWGQGTLVTVSS VL: VIWMTQSPSSLSASVGDRVTFTCQASQDINIYLTWYQIKPGKAPKVLIYDASTLESGVPSRFSGSGFGTHFVFTISSLQPEDFATYYCQHYDSLPLTFGGGTKVEIK
Response: 132000
